# Target Or System: furin, P09958;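 also: purified furin at 1:10 enzyme:substrate in 50 mM HEPES pH 7.5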
# Sequence (P09958 whole entry): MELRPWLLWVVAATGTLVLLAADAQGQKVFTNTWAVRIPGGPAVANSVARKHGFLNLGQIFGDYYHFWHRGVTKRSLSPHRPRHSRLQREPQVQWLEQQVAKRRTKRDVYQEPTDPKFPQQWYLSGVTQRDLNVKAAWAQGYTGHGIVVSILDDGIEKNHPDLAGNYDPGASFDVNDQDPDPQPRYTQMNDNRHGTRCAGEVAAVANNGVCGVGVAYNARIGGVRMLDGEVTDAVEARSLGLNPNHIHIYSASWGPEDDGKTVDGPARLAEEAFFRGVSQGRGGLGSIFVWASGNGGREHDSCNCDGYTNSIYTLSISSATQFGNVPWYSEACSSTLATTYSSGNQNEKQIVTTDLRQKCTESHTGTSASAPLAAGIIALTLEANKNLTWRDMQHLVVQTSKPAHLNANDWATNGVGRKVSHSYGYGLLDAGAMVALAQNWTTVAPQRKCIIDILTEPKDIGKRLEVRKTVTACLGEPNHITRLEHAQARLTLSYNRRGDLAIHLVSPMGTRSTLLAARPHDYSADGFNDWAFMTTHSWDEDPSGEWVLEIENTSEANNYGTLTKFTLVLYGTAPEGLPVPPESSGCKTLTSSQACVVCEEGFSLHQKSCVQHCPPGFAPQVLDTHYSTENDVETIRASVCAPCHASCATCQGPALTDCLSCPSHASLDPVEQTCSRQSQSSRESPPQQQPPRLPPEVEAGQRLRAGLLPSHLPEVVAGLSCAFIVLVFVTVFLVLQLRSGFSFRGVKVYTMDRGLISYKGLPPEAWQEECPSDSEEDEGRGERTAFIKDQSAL
# Test Description: furin cleavage Z-score vs untreated control; higher = more cleavage, active = 3.5 or more, inactive = 1 or less, 8 variable residues between constant flanks
# Setup Conditions: 30 min
Some of the results follow. The hit rate among all sequences tested is not known here.
Outcomes: TRUE = active, FALSE = inactive

CAPSKRGNSTAGNASASA [FS-2877]    FALSE
CAKSRRARRDAGNASASA [FS-1597]    TRUE
CARACRGVTTAGNASASA [FS-2880]    FALSE
CARTKKSSVQAGNASASA [FS-1841]    FALSE
CAGYTGDFDSAGNASASA [HC882]    FALSE
CARTKRSSTTAGNASASA [FS-3108]    TRUE
CARTRRISQTAGNASASA [FS-2468]    FALSE
